# Tested on: SIK2
# MEASUREMENT CONDITIONS: concentration: 1 μM, replicates: in singlicate; n = 1;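 note: KINOMEscan kinase panel screen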
# maps each entry to its %Inh
Entry rule: numbers only, all in %.

Worked cases, answers included:
SMILES CODE: N#Cc1cnc2cc(-c3cnc(CNCCN4CCOCC4)s3)ccc2c1Nc1ccc(Oc2ccccc2)cc1
%Inh (%): 16

SMILES CODE: COC(=O)Nc1nc2ccc(Oc3ccc(NC(=O)Nc4cc(C(F)(F)F)ccc4F)cc3)cc2[nH]1.Cl
%Inh (%): 0

SMILES CODE: N#CC1(c2cccc(C(=O)Nc3cccc(Oc4ccc5nc(NC(=O)C6CC6)sc5n4)c3)c2)CC1
%Inh (%): 0

As a next step, examine the molecule that follows.
Task: What value of %Inh has been reported for the following molecule? CN(c1ccc(NC(=O)N2CCN(CCCN3CCOCC3)CC2)cc1)c1ccnc(Nc2ccc(CS(C)(=O)=O)cc2)n1.Cl
Result: 9

* * *

# maps each entry to its %Inh
# System: PRKCQ
# MEASUREMENT CONDITIONS: concentration: 1 μM, replicates: in singlicate; n = 1
Entry rule: numbers only, all in %.

Worked cases, answers included:
SMILES CODE: Cc1ccc(Nc2ccnc(Nc3ccc(C)c(F)c3)n2)cc1O.Cl
UNIT TAG: %
READOUT VALUE: 0

SMILES CODE: COC(=O)Nc1nc2ccc(Oc3ccc(NC(=O)Nc4cc(C(F)(F)F)ccc4F)cc3)cc2[nH]1.Cl
UNIT TAG: %
READOUT VALUE: 16

SMILES CODE: CN(c1ccc(F)c(NC(=O)c2cccc(OC(C)(C)C#N)c2Cl)c1)c1ccc2nc(NC(=O)C3CC3)sc2n1
UNIT TAG: %
READOUT VALUE: 5

As a next step, examine the molecule that follows.
Task: Entry CCn1c(-c2nonc2N)nc2c(-c3ccccc3)ncc(OCCCN)c21.O=C(O)C(F)(F)F.O=C(O)C(F)(F)F , system PRKCQ: what %Inh was measured?
Result: 93

* * *

# System: CDK7
# MEASUREMENT CONDITIONS: concentration: 1 μM, replicates: in singlicate; n = 1
QUANTITY NAME: %Inh
Write your answer as a measured quantity: the number, then the unit.

Worked cases, answers included:
SMILES CODE: COc1cccc(-c2nc(-c3ccccc3)[nH]c2-c2ccncc2)c1
QUANTITY NAME: %Inh
READOUT VALUE: 0%

SMILES CODE: Cc1ccc(C)c(NC(=O)Nc2ccc(C)c(-c3ccc(C(=O)Nc4ccncc4)cc3)c2)c1
QUANTITY NAME: %Inh
READOUT VALUE: 0%

SMILES CODE: CC(C)c1nc(-c2ccc(F)c(NS(=O)(=O)c3c(F)cccc3F)c2)c(-c2ccnc(Nc3ccc(N4CCOCC4)nc3)n2)s1
QUANTITY NAME: %Inh
READOUT VALUE: 10%

SMILES CODE: O=C(Nc1n[nH]c2nc(-c3ccccc3O)ccc12)C1CC1
QUANTITY NAME: %Inh
READOUT VALUE: 7%

SMILES CODE: CCOc1nccc(-c2c(-c3ccc(F)cc3)ncn2C2CCNCC2)n1
QUANTITY NAME: %Inh
READOUT VALUE: 24%

Task: Entry CN(C)c1ncnc2nc[nH]c12 , system CDK7: what %Inh was measured?
Result: 0%

Task: Entry Cn1cc(-c2cnc(N)c3c(-c4ccc5c(c4)CCN5C(=O)Cc4ccccc4)csc23)cn1 , system CDK7: what %Inh was measured?
Result: 19%

Task: Entry Cc1ccccc1CC(=O)N1CCc2cc(-c3cn(C)c4ncnc(N)c34)ccc21 , system CDK7: what %Inh was measured?
Result: 0%

Task: Entry N#Cc1cnc2cc(-c3cnc(CNCCN4CCOCC4)s3)ccc2c1Nc1ccc(Oc2ccccc2)cc1 , system CDK7: what %Inh was measured?
Result: 15%

Task: Entry CN(C)CCNS(=O)(=O)c1ccc(-c2ccnc3[nH]ccc23)cc1 , system CDK7: what %Inh was measured?
Result: 45%

Task: Entry CCn1cnc2c(NCc3ccccc3)ncnc21 , system CDK7: what %Inh was measured?
Result: 0%

Task: Entry COc1ccc(NC(=O)c2ccoc2)cc1-c1ccc(C(=O)NCC2CC2)cc1 , system CDK7: what %Inh was measured?
Result: 26%

Task: Entry Cl.O=C(Nc1ccc(Oc2ccc3[nH]c(NC(=O)c4ccco4)nc3c2)cc1)Nc1cc(C(F)(F)F)ccc1F , system CDK7: what %Inh was measured?
Result: 78%

* * *

# System: GRK2
# Construct: gene ADRBK1
# MEASUREMENT CONDITIONS: concentration: 1 μM, replicates: in singlicate; n = 1
# maps each entry to its %Inh
Entry rule: numbers only, all in %.

Worked cases, answers included:
COMPOUND: CC(C)NCC(Cc1ccccc1)NC(=O)c1cc(Br)c(-c2ccnc3[nH]ccc23)s1.Cl.Cl (centres unmarked)
UNIT TAG: %
READOUT VALUE: 79

COMPOUND: Cl.Cl.NCC(NC(=O)c1cc(-c2cccnc2)c(-c2ccnc3[nH]ccc23)s1)c1ccccc1 (centres unmarked)
UNIT TAG: %
READOUT VALUE: 8

COMPOUND: COc1cccc(-c2nc(-c3ccccc3)[nH]c2-c2ccncc2)c1
UNIT TAG: %
READOUT VALUE: 0

COMPOUND: CC(C)c1nc(-c2ccc(F)c(NS(=O)(=O)c3c(F)cccc3F)c2)c(-c2ccnc(Nc3ccc(N4CCOCC4)nc3)n2)s1
UNIT TAG: %
READOUT VALUE: 6

COMPOUND: Fc1cc(Cl)ccc1Nc1ccnc2cc(-c3ccc(CN4CCSCC4)o3)ccc12
UNIT TAG: %
READOUT VALUE: 0

Task: What value of %Inh has been reported for the following compound? CCOc1nccc(-c2c(-c3ccc(F)cc3)ncn2C2CCNCC2)n1
Result: 3

Task: What value of %Inh has been reported for the following compound? Cc1ccc(NC(=O)c2ccnc(N3CCCCC3)c2)cc1-c1ccc(C(=O)NCC2CC2)cc1
Result: 16

Task: What value of %Inh has been reported for the following compound? COc1ccc(C2=C(Nc3cccc(O)c3)C(=O)NC2=O)cc1
Result: 0

Task: What value of %Inh has been reported for the following compound? Cc1nn2c(=O)cc(N3CCO[C@H](C)C3)nc2n1Cc1cccc(Cl)c1Cl
Result: 0

Task: What value of %Inh has been reported for the following compound? Cc1ccc(O)cc1Nc1ccnc2cc(-c3ccc(CN4CCCCC4)o3)ccc12
Result: 0

* * *

# Tested on: CSNK1D
# MEASUREMENT CONDITIONS: concentration: 1 μM, replicates: in singlicate; n = 1
QUANTITY NAME: %Inh (%)
Entry rule: numbers only, all in %.

Worked cases, answers included:
COMPOUND: Nc1ncc(-c2cn[nH]c2)c2scc(-c3ccc4c(c3)CCN4C(=O)Cc3ccccc3)c12 [GSK2593067]
READOUT VALUE: 4
--
COMPOUND: CN(c1ccc2c(c1)nc(NCc1ccccc1)n2C)c1ccnc(Nc2ccc(CS(C)(=O)=O)cc2)n1.Cl [GW811603]
READOUT VALUE: 0
--
COMPOUND: COc1cccc(CC(=O)N2CCc3cc(-c4cn(C)c5ncnc(N)c45)ccc32)c1 [GSK2608899]
READOUT VALUE: 39
--
COMPOUND: Cl.Cl.NCC(NC(=O)c1cc(-c2cccnc2)c(-c2ccnc3[nH]ccc23)s1)c1ccccc1 (centres unmarked) [GSK1323434]
READOUT VALUE: 96.7
--
COMPOUND: COc1cccc(NC(=O)NCCNc2ccnc(Nc3ccc(F)cc3)n2)c1 [GSK1379879]
READOUT VALUE: 0

Task: What value of %Inh has been reported for the following compound? COc1cc(Nc2ccnc3cc(-c4ccncc4)ccc23)cc(OC)c1OC.Cl [GW494610]
Result: 46

Task: What value of %Inh has been reported for the following compound? CCNc1nccc(-c2c(-c3ccc(F)cc3)ncn2C2CCN(C)CC2)n1
Result: 98.6

Task: What value of %Inh has been reported for the following compound? O=C1NC(=O)C(c2ccccc2Cl)=C1Nc1cccc(Cl)c1 [SB-342409]
Result: 16

* * *

# System: YSK4
# Construct: gene MAP3K19
# MEASUREMENT CONDITIONS: concentration: 1 μM, replicates: in singlicate; n = 1
Binary classification by %Inh, with 80% as an inclusive lower bound for satisfied; all other cases are not satisfied.

Use these answered entries as a reference point.
MOLECULE: Cn1cc(-c2cnc(N)c3c(-c4ccc5c(c4)CCN5C(=O)Cc4ccccc4)csc23)cn1
CLASS ASSIGNMENT: not satisfied

MOLECULE: Cc1ccc(NC(=O)c2ccnc(N3CCCCC3)c2)cc1-c1ccc(C(=O)NCC2CC2)cc1
CLASS ASSIGNMENT: not satisfied

MOLECULE: CSc1ccc(NC2=C(c3ccc(Cl)cc3)C(=O)NC2=O)cc1
CLASS ASSIGNMENT: not satisfied

MOLECULE: Cl.Cl.NCC(NC(=O)c1cc(-c2cccnc2)c(-c2ccnc3[nH]ccc23)s1)c1ccccc1 (stereo not shown)
CLASS ASSIGNMENT: satisfied

MOLECULE: Cc1ccc(C)c(NC(=O)Nc2ccc(C)c(-c3ccc(C(=O)Nc4ccncc4)cc3)c2)c1
CLASS ASSIGNMENT: satisfied

Task: Item Nc1cccc(-c2ccc3c(N)n[nH]c3c2)c1 with %Inh of 80% or above?
Result: satisfied

Task: Item Nc1ncnc2scc(-c3ccc(NC(=O)Cc4cc(F)ccc4F)cc3)c12.O=C(O)C(F)(F)F with %Inh of 80% or above?
Result: satisfied

Task: Item COc1ccc(C)c(Nc2ccnc(Nc3ccc(-c4cnc[nH]4)cc3)n2)c1.Cl with %Inh of 80% or above?
Result: not satisfied

Task: Item COC(=O)Nc1nc2ccc(Oc3ccc(NC(=O)Nc4cc(C(F)(F)F)ccc4F)cc3)cc2[nH]1.Cl with %Inh of 80% or above?
Result: satisfied

Task: Item O=C(Nc1n[nH]c2nc(-c3ccccc3)ccc12)C1CC1 with %Inh of 80% or above?
Result: satisfied

Task: Item CCOc1nccc(-c2c(-c3ccc(F)cc3)ncn2C2CCNCC2)n1 with %Inh of 80% or above?
Result: not satisfied

Task: Item Cn1cc(-c2ccc3c(c2)CCN3C(=O)Cc2cc(F)cc(C(F)(F)F)c2)c2c(N)ncnc21 with %Inh of 80% or above?
Result: satisfied
